As shown below, each of these compounds has a reported DC50 value.
test target: BRAF V600E (Homo sapiens, UniProt P15056, V600E)
Construct: expressed in transfected cells
Sequence (P15056 whole entry V600E): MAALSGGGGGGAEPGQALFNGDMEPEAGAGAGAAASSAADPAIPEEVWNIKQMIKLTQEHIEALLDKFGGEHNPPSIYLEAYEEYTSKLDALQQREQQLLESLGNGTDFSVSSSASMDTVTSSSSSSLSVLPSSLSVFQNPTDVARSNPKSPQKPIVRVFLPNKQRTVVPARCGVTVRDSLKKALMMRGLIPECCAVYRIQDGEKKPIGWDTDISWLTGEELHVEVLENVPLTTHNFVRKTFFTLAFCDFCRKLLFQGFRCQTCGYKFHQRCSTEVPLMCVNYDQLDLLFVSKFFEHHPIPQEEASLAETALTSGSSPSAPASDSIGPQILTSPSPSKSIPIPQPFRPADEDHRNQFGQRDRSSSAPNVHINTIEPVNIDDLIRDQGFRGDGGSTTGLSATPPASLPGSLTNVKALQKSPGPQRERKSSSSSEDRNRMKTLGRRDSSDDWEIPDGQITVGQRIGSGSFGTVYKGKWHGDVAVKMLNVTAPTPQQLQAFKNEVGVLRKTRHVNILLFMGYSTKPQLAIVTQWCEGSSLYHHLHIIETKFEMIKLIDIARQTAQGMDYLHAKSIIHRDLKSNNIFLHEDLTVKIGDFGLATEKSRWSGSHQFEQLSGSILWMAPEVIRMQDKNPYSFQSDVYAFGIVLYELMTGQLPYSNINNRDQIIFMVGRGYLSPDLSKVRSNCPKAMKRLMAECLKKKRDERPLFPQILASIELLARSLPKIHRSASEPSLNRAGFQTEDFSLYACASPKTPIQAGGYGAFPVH
assay: Cellular assay of target protein degradation, T-Rex 293 cells stably transfected with HA-BRAF_V600E (HA immunofluorescence, high content imaging)
Type: cell-based
recorded conditions: half maximal degradation, T-Rex 293 HA-BRAF V600E; read-out: BRaf V600E DC50

1) COc1cc(N2CC3(CC(CN4CCN(c5ccc(-c6cnc7[nH]cc(C(=O)c8c(F)ccc(NS(=O)(=O)N9CC[C@@H](F)C9)c8F)c7c6)cc5)CC4)C3)C2)cc2c1C(=O)N(C1CCC(=O)NC1=O)C2 (stereo partly shown); 5 to 50 nM
2) O=C1CCC(N2Cc3cc(C4CCN(CCOc5ccc(-c6cnc7[nH]cc(C(=O)c8c(F)ccc(NS(=O)(=O)N9CC[C@@H](F)C9)c8F)c7c6)cc5)CC4)ccc3C2=O)C(=O)N1 (stereo partly shown); 5 to 50 nM
3) O=C1CC[C@H](N2Cc3cc(N4CCC(CN5CCN(c6ccc(-c7cnc8[nH]cc(C(=O)c9c(F)ccc(NS(=O)(=O)N%10CC[C@@H](F)C%10)c9F)c8c7)cc6)CC5)CC4)c(F)cc3C2=O)C(=O)N1; 5 to 50 nM
4) C[C@H]1[C@H](F)CCN1S(=O)(=O)Nc1ccc(F)c(C(=O)c2c[nH]c3ncc(-c4ccc(N5CCC(CN6CCC(c7ccc8c(c7)CN(C7CCC(=O)NC7=O)C8=O)CC6)CC5)cc4)cc23)c1F (stereo partly shown); 5 to 50 nM
5) O=C1CCC(N2Cc3cc(N4CC[C@H]4COc4ccc(-c5cnc6[nH]cc(C(=O)c7c(F)ccc(NS(=O)(=O)N8CC[C@@H](F)C8)c7F)c6c5)cc4)ccc3C2=O)C(=O)N1 (stereo partly shown); > 500 nM
6) O=C1CCC(N2Cc3cc(N4CCN(CCCCCc5ccc(-c6cnc7[nH]cc(C(=O)c8c(F)ccc(NS(=O)(=O)N9CC[C@@H](F)C9)c8F)c7c6)cc5)CC4)ccc3C2=O)C(=O)N1 (stereo partly shown); 50 to 500 nM
7) O=C1CCC(N2Cc3cc(N4CCC(CN5CCN(c6ccc(-c7cnc8[nH]cc(C(=O)c9c(F)ccc(NS(=O)(=O)N%10CC[C@@H](F)C%10)c9F)c8c7)cc6F)CC5)CC4)ccc3C2=O)C(=O)N1 (stereo partly shown); 5 to 50 nM
8) O=C1CCC(N2Cc3cc(OC4CC5(C4)CN(c4ccc(-c6cnc7[nH]cc(C(=O)c8c(F)ccc(NS(=O)(=O)N9CC[C@@H](F)C9)c8F)c7c6)cc4)C5)ccc3C2=O)C(=O)N1 (stereo partly shown); 50 to 500 nM
9) O=C1CCC(N2Cc3cc(CCCN4CC5(C4)CN(c4ncc(-c6cnc7[nH]cc(C(=O)c8c(F)ccc(NS(=O)(=O)N9CC[C@@H](F)C9)c8F)c7c6)cn4)C5)ccc3C2=O)C(=O)N1 (stereo partly shown); 50 to 500 nM

Just so you know, measured DC50 for O=C1CC[C@H](N2Cc3cc(C[C@@H](O)CN4CCC(c5ccc(-c6cnc7[nH]cc(C(=O)c8c(F)ccc(NS(=O)(=O)N9CC[C@@H](F)C9)c8F)c7c6)cc5)CC4)ccc3C2=O)C(=O)N1 came out at 5 to 50 nM
